Tested on: RXF 393 renal
testSummary: NCI-60 one-dose screen, 48 h
conditionLabel: 10 µM unless noted
Compounds without any hit were thinned out: in the full panel of roughly 83,000, 20% have a hit. Active and inactive are the calls of the source. How the source made its calls: active means growth percent below 10; inactive means the rest.
Could you please pick one outcome from this set? yes (1) = active, no (0) = inactive

Cc1ccc(S(=O)(=O)NCCCNc2nccc(-c3c(-c4cccc(F)c4)nc4occn34)n2)cc1 ... no (0)

Continue with the next compound.
Tell me the assay call for O=C(NCc1ccccc1)C(Cl)Cl please.
no (0)

====

Listing of recorded growth by entry.
Test system: SN12C renal
testSummary: NCI-60 one-dose screen, 48 h (100 = growth as untreated, 0 = no growth, -100 = all killed)
conditionLabel: 10 µM unless noted
About 83,000 compounds went through this panel and 20% of them were active in at least one assay; those are over-represented in the sample as a whole. Active and inactive are the calls of the source. Rule for the calls: active = growth percent below 10; inactive = the rest.

Oc1ccc(N=Nc2nccs2)c(O)c1 ... 73.7% (inactive)
CC(C)C1=NOC(=O)C1=Cc1cn(-c2ccccc2)nc1-c1cccc([N+](=O)[O-])c1 ... 78.3% (inactive)
O=C(NCCO)c1cccnc1 ... 100% (inactive)
C[n+]1c2ccccc2nc2c(N)cc(N)cc21 ... 5.51% (active)

State the recorded growth for this entry: O=C1CC(c2ccccc2)Cc2nc3ccc(Cl)cc3cc21 (centres undefined)
28.3% (inactive)

State the recorded growth for this entry: C[C@H]1[C@H](C)CC[C@]2(C(=O)N3CCN(C)CC3)CC[C@]3(C)C(=CC[C@@H]4[C@@]5(C)C/C(=C/c6ccco6)C(=O)C(C)(C)[C@@H]5CC[C@]43C)[C@H]12
28% [100 µM] (inactive)

State the recorded growth for this entry: Cc1cc(C)c(O)c(CNCCCNCc2cc(C)cc(C)c2O)c1
73.4% (inactive)

State the recorded growth for this entry: CCn1cc(-c2ccnc(NCCNS(=O)(=O)c3ccc(Br)cc3)c2)c(-c2cccc(OC)c2)n1
77% (inactive)

State the recorded growth for this entry: C=C(C)[C@@H]1CC[C@]2(c3ncc(C)o3)CC[C@]3(C)[C@H](CC[C@@H]4[C@@](C)(CCC#N)[C@H](C(=C)C)CC[C@]43C)[C@@H]12
-91.5% [100 µM] (active)

====

System: OVCAR-3 ovarian
testSummary: NCI-60 one-dose screen, 48 h (100 = growth as untreated, 0 = no growth, -100 = all killed)
conditionLabel: 10 µM unless noted
The panel holds about 83,000 compounds, 20% with a hit somewhere; the sample as a whole holds those more often.
propertyName: growth (%)
Could you give me the number in %? Just the number is fine.

O=C1Nc2ccccc2/C1=C/C(=O)c1ccc(N2CCCCC2)cc1 ... 10.4

State the recorded growth for this entry: O=C1Nc2ccccc2/C1=C/C(=O)c1ccc(N2CCCC2)cc1
-17.6

State the recorded growth for this entry: CN(C)c1cc(NN=C(c2ccc(O)cc2)c2ccc(O)cc2)c([N+](=O)[O-])cc1[N+](=O)[O-]
95.5

State the recorded growth for this entry: Cc1ccc(NC(=S)/N=c2/n(-c3ccccc3)nc3n2CCN3C2=NCCN2)cc1
129

State the recorded growth for this entry: O=c1[nH]cnc2c1ccn2C1OC(CO)C(O)C1O (stereo not given)
64.7

====

Tested on: A498 renal
testSummary: NCI-60 one-dose screen, 48 h (100 = growth as untreated, 0 = no growth, -100 = all killed)
conditionLabel: 10 µM unless noted
Compounds without any hit were thinned out: in the full panel of roughly 83,000, 20% have a hit.
Please note: 1 applies when growth is 70% or greater, and 0 applies otherwise.

Record excerpt, results attached:
C=CCCCCOc1ccccc1-c1cnc(OCCCCC=C)n1C ... 0
Nc1ccc2c(c1)Cc1cc(NC(=O)C(F)(F)F)ccc1-2 ... 1

Given COc1cc2c(=O)[nH]c3cc([N+](=O)[O-])ccc3c2cc1[N+](=O)[O-] , state whether its growth is at least 70%.
0

Given C#C[C@]1(O)CC[C@H]2[C@@H]3CC=C4c5nc(Nc6ccccn6)sc5CC[C@]4(C)[C@H]3CC[C@@]21C , state whether its growth is at least 70%.
0

Given COc1ccc(OC)c(NC=O)c1 , state whether its growth is at least 70%.
1

Given CC(C)C1=NOC(=O)C1=Cc1cn(-c2ccccc2)nc1-c1ccc(Cl)cc1 , state whether its growth is at least 70%.
1

Given C=CCCCCCCCCC(=O)OC(C)C , state whether its growth is at least 70%.
1

====

Test system: ACHN renal
testSummary: NCI-60 one-dose screen, 48 h
conditionLabel: 10 µM unless noted
Compounds without any hit were thinned out: in the full panel of roughly 83,000, 20% have a hit. Activity calls are given as the source filed them. Rule for the calls: active = growth percent below 10; inactive = the rest.
Could you please pick one outcome from this set? true (1) for active, false (0) for inactive

Record excerpt, results attached:
Cn1cc(-c2noc(-c3cn(C)c4ncc(F)cc34)n2)c2cc(Br)ccc21 ... false (0)
CC(=O)Nc1ccc2nc3ccc(NC(C)=O)cc3[n+](-c3ccccc3)c2c1 ... false (0)
COc1ccc2c(c1)C(C)Cc1c(Cl)ncnc1N2C (stereo unspecified) ... true (1)
COc1c(B(O)O)cccc1-c1nc2ccc3[nH]ncc3c2c2c1CCC2 ... false (0)
Fc1cc2[nH]ncc2c2c3c(c(-c4cn[nH]c4)nc12)CCCC3 ... true (1)

Tell me the assay call for COc1cc(Cl)cc(-c2nn(C(=O)NS(=O)(=O)c3ccccc3)cc2-c2ccncc2)c1 please.
false (0)

Tell me the assay call for COc1ccc(NCc2cn(-c3ccc(C(=O)O)cc3)nc2-c2ccc(C(=O)O)cc2)cc1C(F)(F)F please.
false (0)

Tell me the assay call for COc1cc(NCc2ccccc2O)c2ncccc2c1 please.
false (0)

Tell me the assay call for CCN(CC)c1ccc2cc(C(Nc3ccc(Br)c(C(F)(F)F)c3)c3nnnn3C(C)(C)C)c(=O)oc2c1 (stereo unspecified) please.
false (0)

Tell me the assay call for Clc1ccccc1/C=N\Nc1ccccn1 please.
false (0)

Tell me the assay call for Fc1ccc(NC(=S)c2ccccc2)cc1 please.
false (0)

====

Tested on: HOP-92 NSCLC
testSummary: NCI-60 one-dose screen, 48 h
conditionLabel: 10 µM unless noted
Description: Growth inhibition of the HOP-92 human Non-Small Cell Lung tumor cell line is measured as a screen for anti-cancer activity. Cells are grown in 96 well plates and exposed to the test compound for 48 hours. Compounds are tested at a single concentration, which is 10^-5 M for most compounds. The reported endpoint is percent growth (GI% or GIPRCNT), where numbers from 0 - 100% represent growth inhibition, and numbers from -100% - 0 represent cell death. […]
The panel holds about 83,000 compounds, 20% with a hit somewhere; the sample as a whole holds those more often. Activity calls are given as the source filed them. The calls were made as follows: active = growth percent below 10; inactive = the rest.
Could you please pick one outcome from this set? y = active, n = inactive

Record excerpt, results attached:
CC(C)=CC/C=C(/C)[C@H]1CC[C@]2(C)[C@@H]1CC[C@@H]1[C@@]3(C)CCCNC(C)(C)[C@@H]3CC[C@]12C ... y
COc1ccc2c(c1)C(C)Cc1c(Cl)nc(C)nc1N2C (stereo not given) ... n
Cc1ccc(-c2cc(-c3ccc(C)cc3)nc(NCCNc3ccnc4cc(Cl)ccc34)n2)cc1 ... y

Continue with the next molecule.
Tell me the assay call for Nc1cc(N)c(N=Nc2ccc(S(=O)(=O)O)cc2)cc1N=Nc1ccc(-c2ccc(N=Nc3ccc(O)c(C(=O)O)c3)cc2)cc1 please.
n

====

Listing of recorded growth by entry.
System: TK-10 renal
testSummary: NCI-60 one-dose screen, 48 h (100 = growth as untreated, 0 = no growth, -100 = all killed)
conditionLabel: 10 µM unless noted
Procedure: Growth inhibition of the TK-10 human tumor cell line is measured as a screen for anti-cancer activity. Cells are grown in 96 well plates and exposed to the test compound for 48 hours. Compounds are tested at a single concentration, which is 10^-5 M for most compounds. The reported endpoint is percent growth (GI% or GIPRCNT), where numbers from 0 - 100% represent growth inhibition, and numbers from -100% - 0 represent cell death. For example, a value of 40 represents 60% growth inhibition. […]
This is part of a sample that, as a whole, favours compounds with a hit. Of some 83,000 tested, about 20% had one in any assay.
Could you give me the number in %? Just the number is fine.

Worked examples, 8 compounds total:
Cc1ccc(C2=C/C(=C/c3ccc(Br)cc3)C(=O)N2CCc2ccc(S(N)(=O)=O)cc2)cc1 ... 110
COc1ccc(-c2cc(-c3ccccc3)nc(NCCNc3ccnc4cc(Cl)ccc34)n2)cc1 ... -81.7
CCN(CC)c1ccc(/C=C/C=C2\NC(=O)NC2=O)cc1 ... 8.35
O=C(N=c1n(-c2ccccc2)nc2n1CCN2C1=NCCN1C(=O)c1ccc(Cl)cc1)c1ccc(Cl)cc1 ... 74.6
O=C(O)CSCc1nnc2n(Cc3ccccc3)c(=O)c3c4c(sc3n12)CCCC4 ... 127
Cn1cc(-c2nnc(-c3cn(C)c4ncc(Br)cc34)s2)c2cc(Br)ccc21 ... 108
Brc1ccc(-c2nnc3c4[nH]ccc4ncn23)cc1 ... 89.4
CCOC(=O)c1nn(C2CCCCO2)c2ccc(NC(=O)CN3CCOCC3)cc12 (configuration not stated) ... 109

State the recorded growth for this entry: CCOc1ccc(S(=O)(=O)Nc2ccc3c(c2)N(S(=O)(=O)CC)CCC3)cc1
80.9

State the recorded growth for this entry: CN(C)CCCNc1nc(-c2cccc(C(Cl)(Cl)Cl)c2)nc(C(Cl)(Cl)Cl)n1
115

State the recorded growth for this entry: Nc1cccc2c1C(=O)c1cccc(NC(=O)c3ccccc3)c1C2=O
32.1

State the recorded growth for this entry: Cc1cc(C)c(S(=O)(=O)/N=c2/n(-c3ccccc3)nc3n2CCN3C2=NCCN2)c(C)c1
92.5

State the recorded growth for this entry: O=C1NC(=O)c2cc([N+](=O)[O-])cc3cccc1c23
107
